TESTED_ON: T1, human CD38 Fc-fusion aa 45-300 (human, UniProt P28907 45-300)
T1 construct: Expressed in HEK293 behind a human Vkappa leader, which is left out here; also called CD38-Fc fusion protein; CD38 Fc-Fusion protein
PROTOCOL_DETAILS: SPR (Biacore), Fab format

{"columns": ["BINDER", "Kd"],
 "data": [
  ["MOR06204 Fab (Fab, V domains shown, Fab format) VH: QVQLVESGGGLVQPGGSLRLSCAASGFTFSSYAMNWVRQAPGKGLEWVSHIRKKNTSYTTEYAASVKGRFTISRDNSKNTLYLQMNSLRAEDTAVYYCAREDGSYMTDYFAYWGQGTLVTVSS VL: DIELTQPPSVSVAPGQTARISCSGDNIGHYYVSWYQQKPGQAPVLVIYSDSNRPSGIPERFSGSNSGNTATLTISGTQAEDEADYYCQSYNGTYVFGGGTKLTVL", "22.7 nM"],
  ["MOR03087 Fab (Fab, V domains shown, Fab format) VH: QVQLVESGGGLVQPGGSLRLSCAASGFTFSSYYMNWVRQAPGKGLEWVSGISGDPSNTYYADSVKGRFTISRDNSKNTLYLQMNSLRAEDTAVYYCARDLPLVYTGFAYWGQGTLVTVSS VL: DIELTQPPSVSVAPGQTARISCSGDNLRHYYVYWYQQKPGQAPVLVIYGDSKRPSGIPERFSGSNSGNTATLTISGTQAEDEADYYCQTYTGGASLVFGGGTKLTVLG", "5.68 nM"],
  ["MOR06188 Fab (Fab, V domains shown, Fab format) VH: QVQLVESGGGLVQPGGSLRLSCAASGFTFSSYYMNWVRQAPGKGLEWVSAISTNGWQTYYADSVKGRFTISRDNSKNTLYLQMNSLRAEDTAVYYCARDLPLVYTGFAYWGQGTLVTVSS VL: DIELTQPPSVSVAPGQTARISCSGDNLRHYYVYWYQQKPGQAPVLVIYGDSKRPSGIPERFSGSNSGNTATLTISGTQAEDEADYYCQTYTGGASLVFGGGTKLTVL", "3.96 nM"]
]}
